Test: Crystal form stability study (influencing factor experiments)
Assay type: physicochemical
Details: 75% RH, 5 days, open container
Procedure: Samples of the crystal forms A, B, C, I, J, and K of the compound represented by formula (I) were taken, spread in open containers, and left to stand under conditions of light exposure (4500 Lux), high temperatures (40° C. and 60° C.), and high humidities (RH 75% and RH 92.5%) for 30 days to investigate their stability, and the results are shown in Table 16.
endpointName: Color and state

Example results:
Task: Form field: reported Color and state of CCc1c(F)ccc2cc(O)cc(-c3nc4c5c(nc(OC[C@@]67CCCN6C[C@H](F)C7)nc5c3F)N3C[C@H]5CC[C@H](N5)[C@H]3CO4)c12 [Crystal form C]
Output: Off-white solid

Task: Name the recorded Color and state for CCc1c(F)ccc2cc(O)cc(-c3nc4c5c(nc(OC[C@@]67CCCN6C[C@H](F)C7)nc5c3F)N3C[C@H]5CC[C@H](N5)[C@H]3CO4)c12 [Crystal form B] .
Output: Off-white solid

Task: So what does the record say about Color and state for CCc1c(F)ccc2cc(O)cc(-c3nc4c5c(nc(OC[C@@]67CCCN6C[C@H](F)C7)nc5c3F)N3C[C@H]5CC[C@H](N5)[C@H]3CO4)c12 [Crystal form K] ?
Output: Off-white solid

Task: Find the recorded Color and state belonging to CCc1c(F)ccc2cc(O)cc(-c3nc4c5c(nc(OC[C@@]67CCCN6C[C@H](F)C7)nc5c3F)N3C[C@H]5CC[C@H](N5)[C@H]3CO4)c12 [Crystal form A] and report it.
Output: Off-white solid

Task: For the compound shown here, CCc1c(F)ccc2cc(O)cc(-c3nc4c5c(nc(OC[C@@]67CCCN6C[C@H](F)C7)nc5c3F)N3C[C@H]5CC[C@H](N5)[C@H]3CO4)c12 [Crystal form I] , give the reported Color and state.
Output: Off-white solid

API: the following record is the query input.
Task: What value of measured Color and state is listed for CCc1c(F)ccc2cc(O)cc(-c3nc4c5c(nc(OC[C@@]67CCCN6C[C@H](F)C7)nc5c3F)N3C[C@H]5CC[C@H](N5)[C@H]3CO4)c12 [Crystal form J] ?
Output: Off-white solid

====

Test: Long-term/accelerated stability
Format: physicochemical
Settings: 25° C./60% RH, 3 months
endpointName: Purity % 3 months (%)
Write it as a number; the unit % goes unstated.

Task: Query (molecule): CCc1c(F)ccc2cc(O)cc(-c3nc4c5c(nc(OC[C@@]67CCCN6C[C@H](F)C7)nc5c3F)N3C[C@H]5CC[C@H](N5)[C@H]3CO4)c12 [Crystal form B] ; field requested: Purity % 3 months
Output: 99.3

Task: Quick one: Purity % 3 months of CCc1c(F)ccc2cc(O)cc(-c3nc4c5c(nc(OC[C@@]67CCCN6C[C@H](F)C7)nc5c3F)N3C[C@H]5CC[C@H](N5)[C@H]3CO4)c12 [Crystal form A] ?
Output: 99.3

Task: # query: Purity % 3 months of entry CCc1c(F)ccc2cc(O)cc(-c3nc4c5c(nc(OC[C@@]67CCCN6C[C@H](F)C7)nc5c3F)N3C[C@H]5CC[C@H](N5)[C@H]3CO4)c12 [Crystal form C]
Output: 99.6

Task: // query Purity % 3 months value for entry CCc1c(F)ccc2cc(O)cc(-c3nc4c5c(nc(OC[C@@]67CCCN6C[C@H](F)C7)nc5c3F)N3C[C@H]5CC[C@H](N5)[C@H]3CO4)c12 [Crystal form J]
Output: 99.6

# next molecule below
Task: Query (molecule): CCc1c(F)ccc2cc(O)cc(-c3nc4c5c(nc(OC[C@@]67CCCN6C[C@H](F)C7)nc5c3F)N3C[C@H]5CC[C@H](N5)[C@H]3CO4)c12 [Crystal form I] ; field requested: Purity % 3 months
Output: 99.6

====

Test: Crystal form stability study (influencing factor experiments)
Format: physicochemical
Settings: 40° C., 5 days, open container
Purity % by entry:
Express the result in % but write the number alone.

Would you please look over these solved cases?
Task: I am curious: what Purity % value has been reported for CCc1c(F)ccc2cc(O)cc(-c3nc4c5c(nc(OC[C@@]67CCCN6C[C@H](F)C7)nc5c3F)N3C[C@H]5CC[C@H](N5)[C@H]3CO4)c12 [Crystal form B] ?
Output: 99.3

Task: Endpoint output: Purity % of CCc1c(F)ccc2cc(O)cc(-c3nc4c5c(nc(OC[C@@]67CCCN6C[C@H](F)C7)nc5c3F)N3C[C@H]5CC[C@H](N5)[C@H]3CO4)c12 [Crystal form C] . Value?
Output: 99.3

Task: Look up Purity % for this compound: CCc1c(F)ccc2cc(O)cc(-c3nc4c5c(nc(OC[C@@]67CCCN6C[C@H](F)C7)nc5c3F)N3C[C@H]5CC[C@H](N5)[C@H]3CO4)c12 [Crystal form A]
Output: 99.2

Task: Consider the compound CCc1c(F)ccc2cc(O)cc(-c3nc4c5c(nc(OC[C@@]67CCCN6C[C@H](F)C7)nc5c3F)N3C[C@H]5CC[C@H](N5)[C@H]3CO4)c12 [Crystal form I] and give its measured Purity %.
Output: 99.6

Task: What does the record list as Purity % for CCc1c(F)ccc2cc(O)cc(-c3nc4c5c(nc(OC[C@@]67CCCN6C[C@H](F)C7)nc5c3F)N3C[C@H]5CC[C@H](N5)[C@H]3CO4)c12 [Crystal form J] ?
Output: 99.2

# ---- query compound ----
Task: Value lookup for Purity %; key = CCc1c(F)ccc2cc(O)cc(-c3nc4c5c(nc(OC[C@@]67CCCN6C[C@H](F)C7)nc5c3F)N3C[C@H]5CC[C@H](N5)[C@H]3CO4)c12 [Crystal form K]
Output: 99.2

====

Assay: Long-term/accelerated stability
Assay type: physicochemical
Settings: 40° C./75% RH, 3 months
Purity % 3 months for assorted molecules
Express your answer in %, writing the number without its unit.

Task: Can you share its Purity % 3 months? I mean this molecule: CCc1c(F)ccc2cc(O)cc(-c3nc4c5c(nc(OC[C@@]67CCCN6C[C@H](F)C7)nc5c3F)N3C[C@H]5CC[C@H](N5)[C@H]3CO4)c12 [Crystal form A]
Output: 99.2

Others:
Task: I am curious: what Purity % 3 months value has been reported for CCc1c(F)ccc2cc(O)cc(-c3nc4c5c(nc(OC[C@@]67CCCN6C[C@H](F)C7)nc5c3F)N3C[C@H]5CC[C@H](N5)[C@H]3CO4)c12 [Crystal form C] ?
Output: 99.2

Task: Look at this molecule and give its reported Purity % 3 months. CCc1c(F)ccc2cc(O)cc(-c3nc4c5c(nc(OC[C@@]67CCCN6C[C@H](F)C7)nc5c3F)N3C[C@H]5CC[C@H](N5)[C@H]3CO4)c12 [Crystal form B]
Output: 99.2

Task: Item CCc1c(F)ccc2cc(O)cc(-c3nc4c5c(nc(OC[C@@]67CCCN6C[C@H](F)C7)nc5c3F)N3C[C@H]5CC[C@H](N5)[C@H]3CO4)c12 [Crystal form J] has what recorded Purity % 3 months?
Output: 99.2

Task: Purity % 3 months lookup needed for CCc1c(F)ccc2cc(O)cc(-c3nc4c5c(nc(OC[C@@]67CCCN6C[C@H](F)C7)nc5c3F)N3C[C@H]5CC[C@H](N5)[C@H]3CO4)c12 [Crystal form I] , thanks.
Output: 99.6

====

Assay: Crystal form stability study (influencing factor experiments)
Assay type: physicochemical
Conditions: 60° C., 10 days, open container
endpointName: Color and state

Task: Consider the molecule shown here: CCc1c(F)ccc2cc(O)cc(-c3nc4c5c(nc(OC[C@@]67CCCN6C[C@H](F)C7)nc5c3F)N3C[C@H]5CC[C@H](N5)[C@H]3CO4)c12 [Crystal form J] What is its recorded Color and state?
Output: Off-white solid

Task: I have this molecule here, CCc1c(F)ccc2cc(O)cc(-c3nc4c5c(nc(OC[C@@]67CCCN6C[C@H](F)C7)nc5c3F)N3C[C@H]5CC[C@H](N5)[C@H]3CO4)c12 [Crystal form K] , and I need its recorded Color and state.
Output: Off-white solid

Task: Suppose we examine the molecule CCc1c(F)ccc2cc(O)cc(-c3nc4c5c(nc(OC[C@@]67CCCN6C[C@H](F)C7)nc5c3F)N3C[C@H]5CC[C@H](N5)[C@H]3CO4)c12 [Crystal form B] ; what Color and state value has been reported?
Output: Off-white solid

====

Assay: Crystal form stability study (influencing factor experiments)
Type: physicochemical
Conditions: 60° C., 30 days, open container
endpointName: Purity % (%)
Report only the number, with the unit % understood.

Task: Which Purity % is reported for this compound? CCc1c(F)ccc2cc(O)cc(-c3nc4c5c(nc(OC[C@@]67CCCN6C[C@H](F)C7)nc5c3F)N3C[C@H]5CC[C@H](N5)[C@H]3CO4)c12 [Crystal form J]
Output: 97.4

---
Task: Given CCc1c(F)ccc2cc(O)cc(-c3nc4c5c(nc(OC[C@@]67CCCN6C[C@H](F)C7)nc5c3F)N3C[C@H]5CC[C@H](N5)[C@H]3CO4)c12 [Crystal form B] , state its recorded Purity %.
Output: 99.1

Task: Reported Purity %, compound CCc1c(F)ccc2cc(O)cc(-c3nc4c5c(nc(OC[C@@]67CCCN6C[C@H](F)C7)nc5c3F)N3C[C@H]5CC[C@H](N5)[C@H]3CO4)c12 [Crystal form A] : ____
Output: 98.5

Task: Bench note: what Purity % did CCc1c(F)ccc2cc(O)cc(-c3nc4c5c(nc(OC[C@@]67CCCN6C[C@H](F)C7)nc5c3F)N3C[C@H]5CC[C@H](N5)[C@H]3CO4)c12 [Crystal form C] show?
Output: 97.9

Task: Fill in: Purity % of CCc1c(F)ccc2cc(O)cc(-c3nc4c5c(nc(OC[C@@]67CCCN6C[C@H](F)C7)nc5c3F)N3C[C@H]5CC[C@H](N5)[C@H]3CO4)c12 [Crystal form I] is ___
Output: 99.3

Task: Tell me the measured Purity % of CCc1c(F)ccc2cc(O)cc(-c3nc4c5c(nc(OC[C@@]67CCCN6C[C@H](F)C7)nc5c3F)N3C[C@H]5CC[C@H](N5)[C@H]3CO4)c12 [Crystal form K] , please.
Output: 97.0
